# Test system: SK-ES-1
# Assay: In vitro high-throughput screen of FDA-approved drug library (CellTiter-Glo)
# Assay type: cell-based
# Measurement context: 1 μmol/L drug, 72 hours
Measured % Inhibition SK-ES-1 accompanies every entry in the list below.

Some compounds with recorded % Inhibition SK-ES-1:
Record `Nc1nc(O)c2[nH]nnc2n1` , field % Inhibition SK-ES-1: < 50%

In plain terms, `CCCCC/C=C\C/C=C\C/C=C\C/C=C\CCCC(=O)Nc1ccc(O)cc1` has a documented % Inhibition SK-ES-1 of < 50%

For record `CC(=O)OC[C@H]1O[C@@H]([S-])[C@H](OC(C)=O)[C@@H](OC(C)=O)[C@@H]1OC(C)=O.CCP(CC)CC.[Au+]` the listed % Inhibition SK-ES-1 is 99%

// sample CCc1c2c(nc3ccc(OC(=O)N4CCC(N5CCCCC5)CC4)cc13)-c1cc3c(c(=O)n1C2)COC(=O)[C@]3(O)CC.Cl [Irinotecan Hydrochloride] , its % Inhibition SK-ES-1 was 98%

Others:
The compound identified as C=C1[C@@H]2CC[C@H]3[C@]4(C)C[C@H](O[C@@H]5O[C@H](CO)[C@@H](OS(=O)(=O)[O-])[C@H](OS(=O)(=O)[O-])[C@H]5OC(=O)CC(C)C)C[C@@H](C(=O)O)[C@H]4CC[C@]3(C2)[C@H]1O.[K+].[K+] [Atractyloside potassium salt] registered its % Inhibition SK-ES-1 at 99%

Record CC[C@@]1(O)C(=O)OCc2c1cc1n(c2=O)Cc2cc3ccccc3nc2-1 [Camptothecine (S,+)] . Reported % Inhibition SK-ES-1: 96%

The compound COc1cc2c3cc1Oc1cc(ccc1O)C[C@@H]1c4c(cc(OC)c(O)c4Oc4ccc(cc4)C[C@@H]3N(C)CC2)CC[N+]1(C)C.Cl.O.O.O.O.O.[Cl-] [(+)-Tubocurarine chloride] showed % Inhibition SK-ES-1 equal to < 50%

Value of % Inhibition SK-ES-1 reported for the compound `CN(Cc1cnc2nc(N)nc(N)c2n1)c1ccc(C(=O)N[C@@H](CCC(=O)O)C(=O)O)cc1` is 57%
